assay-method-text: Human HepG2 cell viability assay in 384 well format
Assay type: toxicity, cell-based
Design: dose 125 nL, time 70.5 hour; concentration not given beside the values
recorded-conditions: HepG2 cells, read-out: Inhibition
Assignment: determine reported cytotoxicity at 70.5 h for the given compounds.
Enter the number, and then the unit.

Lookup: State the recorded cytotoxicity at 70.5 h for this entry: NCC1CN(Cc2cn(CCC(N)=O)c3ccccc23)CCO1 (configuration not stated)
Found: 2.17%

Lookup: State the recorded cytotoxicity at 70.5 h for this entry: COc1ccc(C(=O)C2CCCN(Cc3ccccc3O)C2)c(OC)c1 (configuration not stated)
Found: 35.7%

Lookup: State the recorded cytotoxicity at 70.5 h for this entry: Cc1cc(C)c(C(=O)NC2CCCc3nc(N(C)C)ncc32)cc1C (configuration not stated)
Found: 23.6%

Lookup: State the recorded cytotoxicity at 70.5 h for this entry: CCc1nc(NC2CCN(CC(=O)NC3CC3)CC2)c2cnn(C)c2n1
Found: 14.5%

Lookup: State the recorded cytotoxicity at 70.5 h for this entry: O=C(N[C@H]1CCCC[C@@H]1O)c1ccc2nc(-c3ccccc3)[nH]c2c1
Found: 9.22%

Lookup: State the recorded cytotoxicity at 70.5 h for this entry: CN(C)C(=O)N1CCC(c2nc3ccc(-c4ccccc4)cn3n2)CC1
Found: -4.01%

Lookup: State the recorded cytotoxicity at 70.5 h for this entry: Cc1cnn(-c2ccc(C(=O)N3CCCC(n4ccnc4C)C3)cc2)c1 (configuration not stated)
Found: -4.35%

Lookup: State the recorded cytotoxicity at 70.5 h for this entry: OC1CCN(c2ccccc2NCc2nc(-c3cccs3)no2)CC1
Found: -10.7%

Lookup: State the recorded cytotoxicity at 70.5 h for this entry: Cc1cc(C(=O)Nc2cccn(Cc3ccc(F)cc3)c2=O)no1
Found: 0.798%

Lookup: State the recorded cytotoxicity at 70.5 h for this entry: NC(=O)CCN(C(=O)CSc1ccc(F)cc1)c1ccc(F)cc1
Found: 30.2%

Lookup: State the recorded cytotoxicity at 70.5 h for this entry: Cc1noc(-c2ccc(N3CCCC(C(=O)O)C3)nc2)n1 (configuration not stated)
Found: -3.67%

Lookup: State the recorded cytotoxicity at 70.5 h for this entry: CCOc1c(Br)cc(C2C3=C(COC3=O)Nc3[nH]nc(C)c32)cc1OC (configuration not stated)
Found: 29.2%

Lookup: State the recorded cytotoxicity at 70.5 h for this entry: O=S(=O)(Cc1ccccc1F)NC(CO)c1ccco1 (configuration not stated)
Found: 18.8%

Lookup: State the recorded cytotoxicity at 70.5 h for this entry: CCNC(=O)NC[C@H]1Cn2c(-c3ccccc3)cnc2CO1
Found: -3.79%

Lookup: State the recorded cytotoxicity at 70.5 h for this entry: O=C1OC2(CCNCC2)CN1CC(=O)N1CCCC1c1ccco1 (configuration not stated)
Found: -9.95%

Lookup: State the recorded cytotoxicity at 70.5 h for this entry: CS(=O)(=O)N1CCCC12CCCN(C(=O)c1ccno1)C2 (configuration not stated)
Found: -9.08%

Lookup: State the recorded cytotoxicity at 70.5 h for this entry: Cc1ccoc1C(=O)N1Cc2c(CN3CCCCC3)nn(C)c2C1
Found: 0.575%

Lookup: State the recorded cytotoxicity at 70.5 h for this entry: Fc1cnc(N2CC[C@@H]3O[C@@H](COCc4ccccn4)CC[C@@H]32)nc1
Found: 7.99%

Lookup: State the recorded cytotoxicity at 70.5 h for this entry: O=C1NCCN1C1CCN(CCc2cccs2)CC1
Found: -11.4%

Lookup: State the recorded cytotoxicity at 70.5 h for this entry: CN(C)C(=O)N1CCN(C(=O)c2ccccc2)CC2(CNC(=O)C2)C1 (configuration not stated)
Found: -1.67%

Lookup: State the recorded cytotoxicity at 70.5 h for this entry: c1ccc(NCc2cn3c(n2)CNCC3)nc1
Found: 2.18%

Lookup: State the recorded cytotoxicity at 70.5 h for this entry: Cc1cc2nc(CN(C)c3ccccc3)cc(=O)n2o1
Found: 3.13%

Lookup: State the recorded cytotoxicity at 70.5 h for this entry: CCc1cc(NCCCNS(C)(=O)=O)nc(-c2ccncc2)n1
Found: -9.08%

Lookup: State the recorded cytotoxicity at 70.5 h for this entry: Cc1nc2c(c(NCCc3nc4c(s3)CCCC4)n1)CCNCC2
Found: -9.11%

Lookup: State the recorded cytotoxicity at 70.5 h for this entry: C1CCC(NC2CCCN(Cc3noc(C4CC4)n3)C2)C1 (configuration not stated)
Found: -15.1%

Lookup: State the recorded cytotoxicity at 70.5 h for this entry: CCOc1cccc(C2CC(=O)NCc3nc(N4CCCC4)sc32)c1 (configuration not stated)
Found: -3%

Lookup: State the recorded cytotoxicity at 70.5 h for this entry: Cc1ccc(CN2CCn3c(CN4CCN(C)CC4)cnc3C2C)s1 (configuration not stated)
Found: 21.3%

Lookup: State the recorded cytotoxicity at 70.5 h for this entry: NC(=O)CC1CCCCN1C(=O)c1ccc2cc[nH]c2c1 (configuration not stated)
Found: 21.6%

Lookup: State the recorded cytotoxicity at 70.5 h for this entry: CSc1ccccc1C(C(=O)O)N1CCN(Cc2ccccn2)CC1 (configuration not stated)
Found: 17%

Lookup: State the recorded cytotoxicity at 70.5 h for this entry: CN(Cc1cc(Br)cn1C)C(=O)c1ccon1
Found: -2.35%

Lookup: State the recorded cytotoxicity at 70.5 h for this entry: Cc1noc(C)c1-c1cncc(C2CCCN2Cc2c[nH]cn2)n1 (configuration not stated)
Found: -6.81%

Lookup: State the recorded cytotoxicity at 70.5 h for this entry: CN(Cc1ccc(C#N)cc1)C(=O)c1ccn(C)c(=O)c1
Found: -9.77%

Lookup: State the recorded cytotoxicity at 70.5 h for this entry: Cc1n[nH]c(C)c1C1COCCN1C(=O)c1ccc2c(c1)CCO2 (configuration not stated)
Found: -8%

Lookup: State the recorded cytotoxicity at 70.5 h for this entry: CCN(CCc1nccs1)C(=O)c1sccc1C
Found: -9.19%

Lookup: State the recorded cytotoxicity at 70.5 h for this entry: CC(C)Nc1nc2c(c(NC3CC3)n1)CN(C(=O)c1ccnnc1)CC2
Found: 32.6%

Lookup: State the recorded cytotoxicity at 70.5 h for this entry: CC(C)CN1CC(O)CN(S(=O)(=O)c2ccccc2)CC1=O (configuration not stated)
Found: -10.6%

Lookup: State the recorded cytotoxicity at 70.5 h for this entry: CCN(CC(F)(F)F)C(=O)C1CCCN(Cc2cscn2)C1 (configuration not stated)
Found: 26.1%

Lookup: State the recorded cytotoxicity at 70.5 h for this entry: CC(C)c1nnc(NC(=O)NCc2cccnc2NCCN(C)C)s1
Found: 4.5%

Lookup: State the recorded cytotoxicity at 70.5 h for this entry: Cc1cnn(CCNCC(=O)N(C)C(C)c2ccccc2)c1 (configuration not stated)
Found: -10.5%

Lookup: State the recorded cytotoxicity at 70.5 h for this entry: Cc1c2c(C(F)F)cc(SCC(=O)O)nc2nn1C
Found: -2.86%

Lookup: State the recorded cytotoxicity at 70.5 h for this entry: NC(=O)CN1CCC(c2cccc(Oc3ccccc3)n2)CC1
Found: -1.34%

Lookup: State the recorded cytotoxicity at 70.5 h for this entry: CN(C)CCO[C@@H]1CC[C@H]2[C@H]1OCCN2C(=O)CCc1ccccc1
Found: -12.8%

Lookup: State the recorded cytotoxicity at 70.5 h for this entry: Cc1cnn(Cc2ccc(NC(=O)N[C@@H]3C=C[C@H](CO)C3)cc2)c1
Found: -15.1%

Lookup: State the recorded cytotoxicity at 70.5 h for this entry: Cc1cc(C)nc(N2CCN(C(=O)c3ccc(C4CCCO4)s3)CC2)n1 (configuration not stated)
Found: -11.5%

Lookup: State the recorded cytotoxicity at 70.5 h for this entry: O=C(c1ccccc1)N1CCN(CC2CCOc3ccccc3C2)CC1 (configuration not stated)
Found: -2.76%

Lookup: State the recorded cytotoxicity at 70.5 h for this entry: COc1cc(CNC2CCCN(c3ncccn3)C2)cc2c1OCO2 (configuration not stated)
Found: -5.86%

Lookup: State the recorded cytotoxicity at 70.5 h for this entry: Cc1cc(N2CCC3(CCC(=O)N(CCO)C3)CC2)nc(N(C)C)n1
Found: -3.81%
